- experimental target: recombinant human 11beta-HSD1 (Homo sapiens, UniProt P28845)
- Sequence (P28845 whole entry): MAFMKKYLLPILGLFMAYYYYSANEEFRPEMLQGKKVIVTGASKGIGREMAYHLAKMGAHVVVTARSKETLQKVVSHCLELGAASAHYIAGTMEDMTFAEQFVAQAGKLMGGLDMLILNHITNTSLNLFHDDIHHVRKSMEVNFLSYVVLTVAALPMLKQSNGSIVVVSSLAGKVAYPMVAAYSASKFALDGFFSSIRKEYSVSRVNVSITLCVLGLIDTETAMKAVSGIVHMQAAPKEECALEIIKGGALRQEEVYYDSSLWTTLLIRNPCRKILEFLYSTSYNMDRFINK
- test description: 11β-HSD-1 SPA Enzyme Assay (Scintillation Proximity assay, microsomes of transfected HEK 293 EBNA cells)
- stated conditions: read-out: h HSD1 IC50; human microsomes, 40 nM 3H-cortisone, 4 hrs at room temperature
pIC50: −log10 of the molar value.
metric: pIC50

Consider the reported pIC50 for these molecules:
- Cn1nnc(C2CN(C(=O)CC3(c4ccccc4)C4CC5CC3CC(C4)C5O)C2)n1 (stereo not shown) [Example 28]: 8.00
- Cc1nnc(COC2CN(C(=O)CC3(c4ccccc4)C4CC5CC3CC(C4)C5O)C2)o1 (stereo not shown) [Example 36]: 7.85
- Cc1nnc(C2CN(C(=O)CC3(c4ccccc4)C4CC5CC3CC(C4)C5O)C2)o1 (stereo not shown) [Example 34]: 6.71
- CS(=O)(=O)NC1CN(C(=O)CC2(Cc3ccccc3)C3CC4CC2CC(C3)C4O)C1 (stereo not shown) [Example 195]: 6.98
- O=C(CC1(c2ccc(F)cc2)C2CCCC1CC(O)C2)N1CC(O)C1 (stereo not shown) [Example 23]: 8.08

a = CC1(CC(=O)N2CC(O)(c3ccc(F)cc3)C2)C2CC3CC1CC(C2)C3O (stereo not shown) [Example 213]
b = CNC(=O)OCC1CN(C(=O)CC2(c3ccccc3)C3CC4CC2CC(C3)C4O)C1 (stereo not shown) [Example 216]
query: Between the entries labeled a and b , whose measured pIC50 is lower? State your choice using its label.
result: a
